tested.on: T1, biotinylated recombinant human IL-12Rβ2 (human, UniProt Q99665 24-622, random biotinylated)
T1 construct: Recombinant protein produced in-house, biotinylated; also called hIL-12RB2; human IL-12RB2
T1 sequence: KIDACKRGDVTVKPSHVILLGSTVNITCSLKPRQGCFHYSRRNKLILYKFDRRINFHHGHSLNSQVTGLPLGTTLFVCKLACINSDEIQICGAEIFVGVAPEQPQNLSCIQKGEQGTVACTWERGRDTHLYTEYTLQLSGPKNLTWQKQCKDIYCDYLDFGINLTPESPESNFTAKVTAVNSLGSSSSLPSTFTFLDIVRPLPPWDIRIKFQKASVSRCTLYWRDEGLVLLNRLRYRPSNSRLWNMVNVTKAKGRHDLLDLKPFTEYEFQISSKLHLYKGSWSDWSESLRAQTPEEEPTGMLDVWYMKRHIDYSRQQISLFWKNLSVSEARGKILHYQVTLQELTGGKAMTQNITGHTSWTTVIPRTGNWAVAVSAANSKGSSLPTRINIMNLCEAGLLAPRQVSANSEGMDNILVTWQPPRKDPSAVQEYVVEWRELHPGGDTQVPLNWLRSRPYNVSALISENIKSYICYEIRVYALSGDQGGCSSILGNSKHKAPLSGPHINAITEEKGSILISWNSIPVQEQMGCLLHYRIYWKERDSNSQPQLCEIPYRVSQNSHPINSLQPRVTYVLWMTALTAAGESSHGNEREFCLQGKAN
test.summary: ELISA, periplasmic extract on biotinylated hIL-12Rβ2, signal over control wells
measurement.type: ELISA binding hIL-12RB2/control (ratio)
Provide only the numeric value, understood in ratio.

binder="anti-IL-12Rβ2 VHH clone 20442 (VHH, not shown: small tags and cut ends, tested as periplasmic extract; also called 2CRM12) VHH: QVQLQESGGGLVQPGGSLRLSCTASGSIFAIDDMYWYRQAPGKQREFVAYITATNSANYLDSVNGRFTISRDNAKNSVYLQMNSLKPEDTAVYYCNAKQIVGFQIDEYWGQGTQVTVSS" observed_value=0.993

Read the next record carefully.
Looking for the measured ELISA binding hIL-12RB2/control of anti-IL-12Rβ2 VHH clone 20466 (VHH, not shown: small tags and cut ends, tested as periplasmic extract; also called 2CAM2) VHH: QVQLQESGGGLVQAGDSLRLSCAPSGRTFSTYAMGWFRQAPGKEREFVAGISWSGGRTYYADSVKGRFTISRDNAKNTVYLQMNSLKPEDTAVYYCAADPMDYSGSLYAQRSYDYWGQGTQVTVSS , can you help?
1.03

Every entry's value here was drawn from patent US20260209362A1.
